Source of measurements: the supplement of paper PMC6555819

- System: PPARg:RXRa (NR concentration 180 nM, RXRa partner concentration 90 nM)
- testDescription: PBM binding z-score (relative to random genomic background probes); higher = stronger binding; sequences stand for … in GC…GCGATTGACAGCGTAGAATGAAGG
measurementLabel: PBM binding z-score

INSERT INTO assay_data (chain, testresult) VALUES
  ('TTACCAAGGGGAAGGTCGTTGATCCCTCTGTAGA', 0.79),
  ('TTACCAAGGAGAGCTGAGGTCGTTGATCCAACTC', -0.233),
  ('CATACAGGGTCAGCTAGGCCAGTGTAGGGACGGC', 2.96),
  ('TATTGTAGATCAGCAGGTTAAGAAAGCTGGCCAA', -0.269),
  ('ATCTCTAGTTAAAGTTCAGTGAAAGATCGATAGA', 1.74),
  ('GCGAGTGGGGCATCAGCAGGTTACCATAACTTAA', 0.528),
  ('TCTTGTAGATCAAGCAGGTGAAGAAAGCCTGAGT', -0.404),
  ('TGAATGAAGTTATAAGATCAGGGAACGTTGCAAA', 0.116),
  ('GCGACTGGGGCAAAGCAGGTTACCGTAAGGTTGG', 0.866),
  ('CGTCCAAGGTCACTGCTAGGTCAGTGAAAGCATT', 4.7),
  ('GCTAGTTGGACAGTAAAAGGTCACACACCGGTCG', 2.61),
  ('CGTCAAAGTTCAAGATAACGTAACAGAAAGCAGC', 4.44);
